Test system: Mycobacterium tuberculosis
Experiment: Antitubercular activity against isoniazid resistant Mycobacterium tuberculosis H37Rv ATCC 35822 after 24 hrs by MABA method
Format: functional
Conditions: H37Rv ATCC 35822, 24 h
OBSERVATION TYPE: MIC90

Request the reported MIC90 associated with NNC(=O)c1ccncc1 [ISONIAZID]
> 5 µM

Request the reported MIC90 associated with NC(=O)c1c(COc2ccc(/C=N/NC(=O)c3ccncc3)cc2)no[n+]1[O-]
> 262 µM

Request the reported MIC90 associated with NC(=O)c1c(COc2cccc(/C=N/NC(=O)c3ccncc3)c2)no[n+]1[O-]
> 262 µM

Request the reported MIC90 associated with NC(=O)c1c(COc2ccccc2/C=N/NC(=O)c2ccncc2)no[n+]1[O-]
> 262 µM

---

System: Mycobacterium tuberculosis
Experiment: Antitubercular activity against rifampicin resistant Mycobacterium tuberculosis H37Rv ATCC 35838 after 24 hrs by MABA method
Format: functional
Settings: H37Rv ATCC 35838, 24 h
Answer each item with its documented MIC90.

Can you look up MIC90 on Mycobacterium tuberculosis for O=C(N/N=C/c1ccc2no[n+]([O-])c2c1)c1ccncc1 ?
3.78 µM

Can you look up MIC90 on Mycobacterium tuberculosis for COc1nc2ccc(Br)cc2cc1[C@@H](c1ccccc1)[C@@](O)(CCN(C)C)c1cccc2ccccc12 [BEDAQUILINE] ?
0.01 µM

Can you look up MIC90 on Mycobacterium tuberculosis for NC(=O)c1c(COc2ccc(/C=N/NC(=O)c3ccncc3)cc2)no[n+]1[O-] ?
1.99 µM

Can you look up MIC90 on Mycobacterium tuberculosis for NNC(=O)c1ccncc1 [ISONIAZID] ?
0.35 µM

Can you look up MIC90 on Mycobacterium tuberculosis for CO[C@H]1/C=C/O[C@@]2(C)Oc3c(C)c(O)c4c(O)c(c(/C=N/N5CCN(C)CC5)c(O)c4c3C2=O)NC(=O)/C(C)=C\C=C\[C@H](C)[C@H](O)[C@@H](C)[C@@H](O)[C@@H](C)[C@H](OC(C)=O)[C@@H]1C [RIFAMPIN] ?
> 1 µM
